The reported numbers originate from patent JP2011135835A.

- PROCEDURE SUMMARY: physchem
- Assay type: physicochemical
Reported remaining at 504 h values follow for various molecules
Write the answer as a number in %, unit excluded.

CHEMICAL SMILES: CC1(C)CCC[C@](C)([C@H]2CC[C@]3(C)[C@@H]2[C@H](O)C[C@@H]2[C@@]4(C)CC[C@H](O)C(C)(C)[C@@H]4[C@@H](O)C[C@]23C)O1
UOM: %
remaining at 504 h: 99.8

I'd like to know its remaining at 504 h. The molecule in question is CC1(C)CCC[C@](C)([C@H]2CC[C@]3(C)[C@@H]2[C@H](O)C[C@@H]2[C@@]4(C)CC[C@H](O)C(C)(C)[C@@H]4CC[C@]23C)O1
99.7
